B1: KCNAB2 (parent)
chain: YVDVVFANRPDPNTPMEETVRAMT

Variants of: B1
Assay name: protein stability index of a GFP-peptide fusion (GPS, HEK-293T) (PSI 1-6); higher = more stable;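 note: lentivirally expressed fusions sorted by FACS into six bins by GFP to DsRed ratio, PSI derived from sequencing read proportions per bin multiplied by bin number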
Condition notes: c terminus: a fixed tail appended
Output Satisfied for protein stability index not less than 2; output Not satisfied otherwise.

{"Mutation annotation": "E17P", "Class label": "Satisfied"}

Query block: # bool: protein stability index of R21S >= 2
Result block: Not satisfied

Query block: # bool: protein stability index of A22Y >= 2
Result block: Not satisfied
